Target: T1, human GIP receptor (hGIPr) (Homo sapiens, UniProt P48546)
T1 construct: expressed in transfected cells
T1 sequence (P48546 22-466): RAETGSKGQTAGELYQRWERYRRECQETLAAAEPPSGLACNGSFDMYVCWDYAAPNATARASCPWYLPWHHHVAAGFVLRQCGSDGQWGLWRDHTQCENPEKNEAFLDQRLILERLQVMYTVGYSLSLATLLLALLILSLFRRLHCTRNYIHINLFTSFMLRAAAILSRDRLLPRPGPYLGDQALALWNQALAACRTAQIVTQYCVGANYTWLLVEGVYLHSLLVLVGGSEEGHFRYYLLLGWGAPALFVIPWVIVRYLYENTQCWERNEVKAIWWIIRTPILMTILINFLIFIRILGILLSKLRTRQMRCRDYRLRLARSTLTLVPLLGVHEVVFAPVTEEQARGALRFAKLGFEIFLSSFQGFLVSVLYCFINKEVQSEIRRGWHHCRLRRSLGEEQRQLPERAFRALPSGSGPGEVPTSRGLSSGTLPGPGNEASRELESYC
Experiment: BSA-cAMP assay, cells expressing human GIP receptor
Type: cell-based
Details: Batch 1; BSA-cAMP assay; read-out: hGIPr cAMP activity EC50
MEASURE: EC50 (nM)

Some molecules with recorded EC50:
MOLECULE	UNIT	EC50
IP306 (protein) YSEGTFTSDYSKLLERQAIDEFIAWLLKGGAAAGGSGSTASSGSGSATGGGGAATHTCPPC	nM	0.011
IP312 (protein) YSEGTFISDVSSYMERQAIDEFIAWLLKGGAAAGGSGSTASSGSGSATGGGGAATHTCPPC	nM	0.048

a: IP367 (protein) YSEGTFTSDYRILKERQAIDEFIAWLLKGGAAAGGSGSTASSGSGSATGGGGAATHTCPPC
b: IP315 (protein) YSEGTFISDYSSYLERQAIDEFIAWLLKGGAAAGGSGSTASSGSGSATGGGGAATHTCPPC
c: IP310 (protein) YSEGTFTSDVSSYMERQAIDEFIAWLLKGKAAAGGSGSTASSGSGSATGGGGAATHTCPPC
## Input Write the entries in order, lowest recorded EC50 first. Put the labels in the requested order and list them out.
## Output b, a, c
